As shown below, each of these compounds has a reported Emax (OD620) value.
Target: human TLR7 (Homo sapiens (Human))
Assay: Agonistic activity of compounds on HEK-Blue hTLR7 cells (QUANTI-Blue reporter, OD620)
Format: cell-based
Details: OD620 at maximum activation effect
Report the value in OD620 with no unit label.

Reference set, count: 2
CCCCc1nc2c(N)nc3ccsc3c2n1CC1CCN(C)CC1	1.59
CCCCc1nc2c(N)nc3cc(C4CCOCC4)sc3c2n1CC1CCN(C)CC1	1.83

Tell me the measured Emax (OD620) of CCCCc1nc2c(N)nc3cc(C4CCN(C)CC4)sc3c2n1CC1CCN(C)CC1 , please. 0.49

Which value of Emax (OD620) has been reported for CCCCc1nc2c(N)nc3cc(C)sc3c2n1CC1CCNCC1 in the records? 1.43

Name the reported Emax (OD620) value associated with the compound CCCCc1nc2c(N)nc3cc(C)sc3c2n1CCCCN 1.36

---

Molecular target: human TLR8 (Homo sapiens (Human), UniProt Q9NR97)
Sequence (Q9NR97 27-1041): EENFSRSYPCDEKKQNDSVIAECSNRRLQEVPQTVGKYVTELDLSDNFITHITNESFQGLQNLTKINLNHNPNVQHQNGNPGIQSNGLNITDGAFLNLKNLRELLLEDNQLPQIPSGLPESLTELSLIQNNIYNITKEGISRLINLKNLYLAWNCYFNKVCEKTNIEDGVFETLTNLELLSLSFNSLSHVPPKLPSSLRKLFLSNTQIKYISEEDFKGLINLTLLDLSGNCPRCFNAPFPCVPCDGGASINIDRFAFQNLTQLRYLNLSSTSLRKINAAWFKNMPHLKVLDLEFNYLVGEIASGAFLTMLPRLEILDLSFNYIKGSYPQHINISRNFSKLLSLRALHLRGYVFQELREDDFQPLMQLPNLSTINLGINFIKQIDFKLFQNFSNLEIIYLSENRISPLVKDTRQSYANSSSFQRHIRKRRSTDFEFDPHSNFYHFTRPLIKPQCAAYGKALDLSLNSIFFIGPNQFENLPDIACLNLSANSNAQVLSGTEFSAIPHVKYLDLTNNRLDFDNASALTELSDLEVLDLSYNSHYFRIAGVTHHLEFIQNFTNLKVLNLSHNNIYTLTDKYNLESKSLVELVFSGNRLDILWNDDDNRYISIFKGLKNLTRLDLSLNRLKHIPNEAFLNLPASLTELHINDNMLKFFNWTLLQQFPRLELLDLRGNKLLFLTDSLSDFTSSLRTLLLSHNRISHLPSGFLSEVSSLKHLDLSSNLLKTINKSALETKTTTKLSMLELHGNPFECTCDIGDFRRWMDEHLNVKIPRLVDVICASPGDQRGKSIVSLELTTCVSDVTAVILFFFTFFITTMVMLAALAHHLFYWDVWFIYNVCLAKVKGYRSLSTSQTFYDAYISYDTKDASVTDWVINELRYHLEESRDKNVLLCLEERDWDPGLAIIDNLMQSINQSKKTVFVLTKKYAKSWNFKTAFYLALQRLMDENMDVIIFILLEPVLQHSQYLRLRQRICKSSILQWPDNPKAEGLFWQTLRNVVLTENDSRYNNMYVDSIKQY
Test: Agonistic activity of compounds on HEK-Blue hTLR8 cells (QUANTI-Blue reporter, OD620)
Type: cell-based
ENDPOINT: activation effect on human TLR8 (in words)

Answered examples (5):
CCCCc1nc2c(N)nc3cc(C)sc3c2n1CCCCN [Compound 1]	strong activation effect
CCCCc1nc2c(N)nc3cc(C4CCN(C)CC4)sc3c2[nH]1 [Compound 6]	strong activation effect
CCCCc1nc2c(N)nc3cc(C4CCNCC4)sc3c2n1CC1CCOCC1 [Compound 33]	strong activation effect
CCCCc1nc2c(N)nc3ccsc3c2n1CC1CCN(C)CC1 [Compound 27]	strong activation effect
CCCCc1nc2c(N)nc3cc(C)sc3c2n1CC1CCNCC1 [Compound 3]	strong activation effect

Next compound, please.
Please report the recorded activation effect on human TLR8 (in words) for CCCCc1nc2c(N)nc3ccsc3c2n1CCCCN [Compound 2] . strong activation effect

---

Target: human TLR8 (Homo sapiens (Human))
Assay: Agonistic activity of compounds on HEK-Blue hTLR8 cells (QUANTI-Blue reporter, OD620)
Format: cell-based
Conditions: OD620 at maximum activation effect
Please note: Met applies when Emax (OD620) is 1 OD620 or greater, and Not met applies otherwise.

CCCCc1nc2c(N)nc3cc(C)sc3c2n1CC1CCNCC1	Met

Item CCCCc1nc2c(N)nc3cc(C4CCN(C)CC4)sc3c2[nH]1 with Emax (OD620) of 1 OD620 or above? Met

Can CCCCc1nc2c(N)nc3cc(C)sc3c2n1CCCCN be said to have Emax (OD620) at or above 1 OD620? Met

Evaluate CCCCc1nc2c(N)nc3ccsc3c2n1CCCCN : Emax (OD620) at minimum 1 OD620? Met

Identify whether the reported Emax (OD620) of the following molecule is 1 OD620 or greater: CCCCc1nc2c(N)nc3cc(C4CCNCC4)sc3c2n1CC1CCOCC1 Not met

Reported Emax (OD620) at or above 1 OD620? CCCCc1nc2c(N)nc3ccsc3c2n1CC1CCN(C)CC1 Not met

---

Molecular target: human TLR7 (Homo sapiens (Human), UniProt Q9NYK1)
Sequence (Q9NYK1 27-1049): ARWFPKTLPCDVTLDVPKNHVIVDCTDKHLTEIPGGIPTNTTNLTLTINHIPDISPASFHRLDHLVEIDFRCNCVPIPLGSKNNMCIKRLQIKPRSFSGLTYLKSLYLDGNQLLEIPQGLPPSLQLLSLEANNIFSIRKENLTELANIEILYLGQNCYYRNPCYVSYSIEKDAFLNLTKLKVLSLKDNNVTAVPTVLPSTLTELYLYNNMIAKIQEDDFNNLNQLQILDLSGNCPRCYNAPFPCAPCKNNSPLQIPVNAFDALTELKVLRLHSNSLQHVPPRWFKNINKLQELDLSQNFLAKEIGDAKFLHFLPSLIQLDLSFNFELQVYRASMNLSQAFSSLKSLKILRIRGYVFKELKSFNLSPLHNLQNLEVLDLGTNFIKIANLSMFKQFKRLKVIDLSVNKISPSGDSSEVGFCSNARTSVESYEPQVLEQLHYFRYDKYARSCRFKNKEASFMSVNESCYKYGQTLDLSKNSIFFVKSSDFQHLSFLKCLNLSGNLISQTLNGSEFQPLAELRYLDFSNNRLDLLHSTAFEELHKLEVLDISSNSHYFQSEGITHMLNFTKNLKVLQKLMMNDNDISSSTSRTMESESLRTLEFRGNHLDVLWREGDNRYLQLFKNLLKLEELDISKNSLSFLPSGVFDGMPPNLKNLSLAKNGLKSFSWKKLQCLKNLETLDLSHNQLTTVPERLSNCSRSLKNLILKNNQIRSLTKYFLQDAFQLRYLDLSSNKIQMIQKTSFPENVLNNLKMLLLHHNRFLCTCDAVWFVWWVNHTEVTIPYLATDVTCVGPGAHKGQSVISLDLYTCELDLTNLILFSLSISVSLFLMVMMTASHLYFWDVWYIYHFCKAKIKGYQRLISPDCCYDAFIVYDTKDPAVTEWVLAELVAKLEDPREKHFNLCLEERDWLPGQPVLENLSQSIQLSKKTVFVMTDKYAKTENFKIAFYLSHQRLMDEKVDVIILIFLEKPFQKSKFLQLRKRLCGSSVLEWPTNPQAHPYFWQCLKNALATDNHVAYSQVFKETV
Assay: Agonistic activity of compounds on HEK-Blue hTLR7 cells (QUANTI-Blue reporter, OD620)
Format: cell-based
Conditions: OD620 at maximum activation effect
Procedure: • 1. HEK-Blue hTLR7 cells (Invivogen) were cultured in DMEM medium (Hyclone) containing 10% FBS heat-inactivated fetal bovine serum (Corning). […] 10 μL of cell culture supermatant was taken and transferred to a new 96-well transparent plate, 90 μL of QUANTI-Blue (Invivogen) detection reagent was added to each well, and incubated at 37° C. for 3 h, and OD620 was read with a multifunctional microplate reader (BMG LABTECH). • 4. […]
Please use t whenever Emax (OD620) is not below 1 OD620, and f whenever it is.

Worked examples, 3 compounds total:
CCCCc1nc2c(N)nc3cc(C4CCNCC4)sc3c2n1CC1CCOCC1 [Compound 33]	t
CCCCc1nc2c(N)nc3cc(C4CCN(C)CC4)sc3c2[nH]1 [Compound 6]	t
CCCCc1nc2c(N)nc3ccsc3c2n1CCCCN [Compound 2]	t

Now look at this one.
Decide: Emax (OD620) of CCCCc1nc2c(N)nc3cc(C4CCN(C)CC4)sc3c2n1C [Compound 32] >= 1 OD620? f
